assay: Cytotoxicity against human L3.6pl cells assessed as inhibition of cell growth measured after 72 hrs by ATPlite assay
Format: toxicity, cell-based

{"compound": "COc1ccc(C(=O)Nc2ccc(N3CCCN(c4ncccn4)CC3)cc2C(=O)O)cc1", "IC50 at 72 h": "> 30 µM"}
{"compound": "COc1ccccc1C(=O)Nc1ccc(N2CCN(Cc3ccccn3)CC2)cc1C(=O)O", "IC50 at 72 h": "> 100 µM"}
{"compound": "CCOc1ccccc1N1CCN(c2ccc(NC(=O)c3ccc(OC)cc3)c(C(=O)O)c2)CC1", "IC50 at 72 h": "> 20 µM"}
{"compound": "COc1ccc(C(=O)Nc2ccc(N3CCC(c4cccc(C)c4)C3)cc2C(=O)O)cc1 (stereo unspecified)", "IC50 at 72 h": "39.9 µM"}
{"compound": "COc1ccc(C(=O)Nc2ccc(N3CCN(c4ccccc4OC)CC3)cc2C(=O)O)cc1", "IC50 at 72 h": "13.3 µM"}
{"compound": "COc1ccc(C(=O)Nc2ccc(N3CCN(c4ccccc4Cl)CC3)cc2C(=O)O)cc1", "IC50 at 72 h": "125 µM"}

* * *

System: CHO-K1
assay: Inhibition of spermidine uptake in chinese hamster CHO-K1 cells assessed as decrease in cell growth by measuring cellular ATP content measured after 48 hrs in presence of DFMO and spermidine by ATPlite assay
run conditions: Cricetulus griseus, CHO-K1, 48 h
pEC50: −log10 of the molar value.
Overview of reported pEC50 across a group of compounds:
measured metric: pEC50

{"chem smiles": "Cc1cccc(N2CCN(c3ccc(NC(=O)c4ccccc4Cl)c(C(=O)O)c3)CC2)c1C", "limit operator": "=", "value reported": 4.66}
{"chem smiles": "COc1ccccc1N1CCN(c2ccc(NC(=O)c3ccccc3-c3cccs3)cc2C(=O)O)CC1", "limit operator": "=", "value reported": 4.57}
{"chem smiles": "COC(=O)c1cc(N2CCN(c3cc(Cl)ccc3C)CC2)ccc1NC(=O)c1ccc(OC)cc1OC", "limit operator": "<", "value reported": 4.40}
{"chem smiles": "COc1ccc(C(=O)Nc2ccc(N3CCC(C(N)=O)CC3)cc2C(=O)O)cc1", "limit operator": "<", "value reported": 4.40}
{"chem smiles": "CCOc1ccccc1N1CCN(c2ccc(NC(=O)c3ccc(OC)cc3)c(C(=O)O)c2)CC1", "limit operator": "=", "value reported": 4.70}

* * *

Test system: CHO-K1
assay: Cytotoxicity against chinese hamster CHO-K1 cells assessed as decrease in cell viability measured after 48 hrs by ATPlite assay
Type: toxicity, cell-based, Cricetulus griseus
run conditions: cho-k1, 48 h
Overview of reported MTC across a group of molecules:
measured metric: MTC

{"molecule": "O=C(Nc1ccc(N2CCN(C3CCCCC3)CC2)cc1C(=O)O)c1ccc(F)cc1", "value reported": "> 40 µM"}
{"molecule": "Cc1ccc(CC(=O)Nc2ccc(N3CCN(c4ccccc4Cl)CC3)cc2C(=O)O)cc1", "value reported": "> 40 µM"}
{"molecule": "COc1ccccc1C(=O)Nc1ccc(N2CCN(c3cc(Cl)ccc3C)CC2)cc1C(=O)O", "value reported": "19 µM"}
{"molecule": "O=C(Nc1ccc(N2CCN(c3ccccn3)CC2)cc1C(=O)O)c1ccco1", "value reported": "> 40 µM"}
{"molecule": "COCCNC(=O)CN1CCN(c2ccc(NC(=O)c3ccc(OC)cc3)c(C(=O)O)c2)CC1", "value reported": "> 40 µM"}
{"molecule": "COc1ccc(C(=O)Nc2ccc(N3CCN(c4ccccc4OC)CC3)cc2C(=O)O)cc1", "value reported": "> 40 µM"}
{"molecule": "Cc1ccc(C(=O)Nc2ccc(N3CCN(c4cc(Cl)ccc4C)CC3)c(C(=O)O)c2)cc1", "value reported": "12 µM"}
{"molecule": "CCOc1ccccc1N1CCN(c2ccc(NC(=O)c3ccc(OC)cc3)c(C(=O)O)c2)CC1", "value reported": "37 µM"}
{"molecule": "Cc1cccc(N2CCN(c3ccc(NC(=O)c4ccccc4F)cc3C(=O)O)CC2C)c1 (centres undefined)", "value reported": "> 40 µM"}
